# TARGET_ENTITY: CD3 (antibody antigen coated on the ELISA plate in Examples 1 to 3) (Homo sapiens (Human)) (UniProt P07766)
# Sequence (P07766 23-126 limits assumed): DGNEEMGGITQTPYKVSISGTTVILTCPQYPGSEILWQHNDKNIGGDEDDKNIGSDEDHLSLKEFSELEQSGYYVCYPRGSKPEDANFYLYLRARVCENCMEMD
# EXPERIMENT: ELISA, antigen coated, anti-human IgG-HRP; against wild-type anti-CD3 antibody
ASSAY_METRIC: Binding strength of mutants (EC50 mutant/EC50 wild-type)
Provide a numeric answer; units are not to be included.

Guide cases for Binding strength of mutants (EC50 mutant/EC50 wild-type), answers given:
anti-CD3 antibody mutant VL-R56C (antibody, V domains shown) VH: EVQLVESGGGLVQPGGSLRLSCAASGFTFSTYAMNWVRQAPGKGLEWVGRIRSKYNNYATYYADSVKDRFTISRDDSKNSLYLQMNSLKTEDTAVYYCARHGNFGNSYVSWFAYWGQGTLVTVSS VL: QTVVTQEPSLTVSPGGTVTLTCRSSTGAVTTSNYANWVQQKPGQAPRGLIGGTNKCAPGVPARFSGSLLGDKAALTLLGAQPEDEAEYFCALWYSNLWVFGGGTKLTVL :: 1.5
anti-CD3 antibody mutant VL-Y94C (antibody, V domains shown) VH: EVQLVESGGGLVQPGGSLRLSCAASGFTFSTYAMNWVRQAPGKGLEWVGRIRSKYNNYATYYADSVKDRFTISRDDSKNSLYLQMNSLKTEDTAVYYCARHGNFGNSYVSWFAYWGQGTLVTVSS VL: QTVVTQEPSLTVSPGGTVTLTCRSSTGAVTTSNYANWVQQKPGQAPRGLIGGTNKRAPGVPARFSGSLLGDKAALTLLGAQPEDEAEYFCALWCSNLWVFGGGTKLTVL :: 1
anti-CD3 antibody mutant VH-S53C (antibody, V domains shown) VH: EVQLVESGGGLVQPGGSLRLSCAASGFTFSTYAMNWVRQAPGKGLEWVGRIRCKYNNYATYYADSVKDRFTISRDDSKNSLYLQMNSLKTEDTAVYYCARHGNFGNSYVSWFAYWGQGTLVTVSS VL: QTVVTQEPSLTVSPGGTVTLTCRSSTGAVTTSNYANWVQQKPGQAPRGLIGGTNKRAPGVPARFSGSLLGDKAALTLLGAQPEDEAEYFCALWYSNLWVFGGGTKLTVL :: 1.2
anti-CD3 antibody mutant VL-N96C (antibody, V domains shown) VH: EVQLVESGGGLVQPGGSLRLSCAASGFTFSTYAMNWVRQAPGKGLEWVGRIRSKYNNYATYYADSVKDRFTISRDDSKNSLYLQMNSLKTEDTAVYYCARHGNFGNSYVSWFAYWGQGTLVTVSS VL: QTVVTQEPSLTVSPGGTVTLTCRSSTGAVTTSNYANWVQQKPGQAPRGLIGGTNKRAPGVPARFSGSLLGDKAALTLLGAQPEDEAEYFCALWYSCLWVFGGGTKLTVL :: 1
anti-CD3 antibody mutant VL-Y34C (antibody, V domains shown) VH: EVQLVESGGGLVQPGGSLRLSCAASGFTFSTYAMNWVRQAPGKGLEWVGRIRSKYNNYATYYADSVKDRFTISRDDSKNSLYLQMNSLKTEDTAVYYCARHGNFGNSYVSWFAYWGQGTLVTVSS VL: QTVVTQEPSLTVSPGGTVTLTCRSSTGAVTTSNCANWVQQKPGQAPRGLIGGTNKRAPGVPARFSGSLLGDKAALTLLGAQPEDEAEYFCALWYSNLWVFGGGTKLTVL :: 1.2
anti-CD3 antibody mutant VH-Y61C (antibody, V domains shown) VH: EVQLVESGGGLVQPGGSLRLSCAASGFTFSTYAMNWVRQAPGKGLEWVGRIRSKYNNYATCYADSVKDRFTISRDDSKNSLYLQMNSLKTEDTAVYYCARHGNFGNSYVSWFAYWGQGTLVTVSS VL: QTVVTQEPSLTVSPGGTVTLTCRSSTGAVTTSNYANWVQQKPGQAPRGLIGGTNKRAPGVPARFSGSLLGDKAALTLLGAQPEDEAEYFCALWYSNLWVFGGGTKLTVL :: 5.1

# input binder: anti-CD3 antibody mutant VL-K55C (antibody, V domains shown) VH: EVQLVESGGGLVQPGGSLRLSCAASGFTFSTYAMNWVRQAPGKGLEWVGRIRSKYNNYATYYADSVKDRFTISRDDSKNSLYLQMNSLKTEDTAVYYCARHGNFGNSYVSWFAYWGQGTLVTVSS VL: QTVVTQEPSLTVSPGGTVTLTCRSSTGAVTTSNYANWVQQKPGQAPRGLIGGTNCRAPGVPARFSGSLLGDKAALTLLGAQPEDEAEYFCALWYSNLWVFGGGTKLTVL ; wanted: its Binding strength of mutants (EC50 mutant/EC50 wild-type)
0.9
